For each record, write down the corresponding IC50.

Challenge: I'm curious: which IC50 was measured for CNCc1cc(OCc2cc(F)ccc2F)n(CC(C)(C)C)n1 [Example 504, monophosphate dihydrate] tested on UniProt:P14416?
Response given: > 1000 nM

Challenge: I'm curious: which IC50 was measured for CNCc1cc(OCc2cc(Cl)ccc2F)n(CCC(C)(C)OC)n1 tested on UniProt:P14416?
Response given: > 1000 nM

Challenge: I'm curious: which IC50 was measured for CNCc1cc(OCc2cc(F)ccc2F)n(CCC(C)(C)C)n1 [Example 500, Monophosphate] tested on UniProt:P14416?
Response given: > 1000 nM

# credit: patent US11576897B2
